Target: Serine/threonine-protein kinase PLK1 (Homo sapiens)
Assay: qHTS for Inhibitors of PLK1-PDB (polo-like kinase 1 - polo-box domain): Primary Screen; note: series mostly up to about 57 µM; % is set by controls: 0 for no effect and ±100 for the full control effect; nearly all actives have a fitted effect of over 65% in size
Conditions: Plk1 PBD binding of FITC phosphopeptide, fluorescence polarization
The whole screen tested about 360,000 compounds, of which about 10,000 (2.8%) were called active. About 4% were inconclusive and are not listed. The full list was thinned out, with actives kept by preference.
Answer each item with its documented max response, negative = inhibition.
Answer format: numeric, % implied, no suffix.

(Q) Form field: reported max response, negative = inhibition of NCCc1c[nH]c2ccc(O)cc12
(A) -10.9

(Q) # get_value(readout='max response, negative = inhibition', item= COC(=O)C1=C(c2cc3ccccc3o2)C[C@@H]2CC[C@H]1N2C(=O)NC1CCCCC1 )
(A) 0.442

(Q) State the recorded max response, negative = inhibition for this entry: Cn1c(C(=O)N2CCC(C(=O)N3CCC4(CC3)OCCO4)CC2)cc2sccc21
(A) -6.93

(Q) Suppose we examine the compound C[C@H]1CN([C@@H](C)CO)C(=O)CCCn2nncc2CO[C@H]1CN(C)C(=O)Oc1ccccc1 ; what max response, negative = inhibition value has been reported?
(A) -3.55

(Q) For COC(=O)C1=C(c2ccc(Cl)c(C(F)(F)F)c2)C[C@@H]2CC[C@H]1N2C(=O)NC(C)C , what is its reported max response, negative = inhibition?
(A) -9.53
